tested on: XIP peptide (Xip251-270) binding; test: small-molecule binders of XIP peptide, primary screen, biochemical, small-molecule microarray, fluorescence 635/667 nm, 0.1 µg/mL protein (AID 1182); conditions: fluorescent protein binding, 635 nm, higher = more signal, called active from +8 up or from −8 down
# composite z-score annotations
Format: numeric value only, no unit, no commentary.

Enquiry: Form field: reported composite z-score of NCCCCCCNC(=O)[C@@H]1C[C@@H]2C(=O)N[C@@H](Cc3ccccc3)C(=O)N2[C@@H]1c1ccc(O)cc1
Return: 0.208

Enquiry: Try O=C1c2ccccc2[C@@]2(Cc3ccccc3N(CC(F)(F)F)C2=O)[C@H](c2ccc(CO)cc2)N1Cc1ccccc1C(F)(F)F next.
Return: -0.765

Enquiry: Try CCCNC(=O)[C@@]1(Sc2ccc(C)cc2)CC(=O)N(Cc2cc(C(F)(F)F)cc(C(F)(F)F)c2)[C@@H]1c1ccc(CO)cc1I next.
Return: 0.459

* * *

assay: small-molecule microarray binders of probe aWnt5a, primary screen, biochemical, biotinylated probe, 635/667 nm fluorescence (AID 1113); conditions: higher = more signal;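 further: score merges 667 nm fluorescence intensity with signal-to-noise per printed feature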
# composite z-score annotations

Enquiry: Form field: reported composite z-score of C[N+](C)(C)CCCC[C@@H]1NC(=O)[C@H]2C[C@@H](C(=O)NCCCCCN)[C@@H](c3cccc(OCCO)c3)N2C1=O
Return: 0.133

Enquiry: Try CC(C)(C)OC(=O)CC[C@@]1(C(=O)NCc2ccccc2)N=C(c2ccc(OCCCO)cc2)O[C@@H]1c1ccccc1CN=[N+]=[N-] next.
Return: 0.164

Enquiry: Try COCCCNC(=O)[C@@]1(Cc2ccccc2)N=C(c2ccc(OCCCO)cc2)O[C@H]1c1ccccc1N=[N+]=[N-] next.
Return: 0.115

Enquiry: Try C[N+](C)(C)CCCC[C@@H]1NC(=O)[C@@H]2C[C@H](C(=O)NCCCCCNC(=O)CS)[C@H](c3ccc(O)cc3)N2C1=O next.
Return: -0.191

* * *

test: binders of probe aFSTL3 on microarray, primary screen, stem cell growth factor project, biochemical, small-molecule microarray, fluorescence 635/667 (AID 1064); conditions: higher = more signal;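 further: measures binding of the biotinylated anti-FSTL3 antibody to printed compounds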
Please enter Yes where composite z-score is greater than or equal to 0.8, and No where it is lower.

molecule	answerLabel
CN(C)CCCC[C@@H]1NC(=O)[C@@H]2C[C@H](C(=O)NCCCCCNC(=O)CS)[C@H](c3cccc(OCCO)c3)N2C1=O	No
O=C(NO)[C@]1(Cc2ccccc2)N=C(c2ccc(OCCCO)cc2)O[C@@H]1c1ccccc1	No

Enquiry: Decide: is the reported value of composite z-score for CC(C)N1CC=CC23O[C@@H]4/C=C\CCCOC(=O)C4[C@H]2C(=O)N(CCCO)[C@@H]3C1=O (stereo partly drawn) equal to or greater than 0.8?
Return: No

Enquiry: Try CC(C)(C)OC(=O)CC[C@@]1(C(=O)N2CCOCC2)N=C(c2ccc(OCCCO)cc2)O[C@@H]1c1ccccc1 next.
Return: Yes

Enquiry: Try O=C(NCC(F)(F)F)[C@@H]1c2ccccc2C(=O)N(C2Cc3ccccc3C2)[C@H]1c1ccc(CO)cc1 next.
Return: Yes

Enquiry: Try CCCCC(=C=CC[C@@H](O)c1ccc(OCCO)cc1)C[C@@H](O)c1cc(Cl)cc(Cl)c1O next.
Return: No

Enquiry: Try C=CCNC(=O)[C@H]1[C@@H]2C(=O)O[C@@H](c3ccccc3)[C@@H](c3ccccc3)N2[C@@H](c2ccccc2OCCO)[C@]12C(=O)N(C(=O)OCCOC)c1ccc(C#CCCO)cc12 next.
Return: Yes

Enquiry: Try COc1ccc(/C=C/C(=O)c2cccc(OCC(=O)OC(C)(C)C)c2)cc1 next.
Return: No

meta.source: PubChem BioAssay
